# Assay Target: 5-hydroxytryptamine receptor 1A (Homo sapiens, UniProt P08908)
# Sequence (P08908 whole entry): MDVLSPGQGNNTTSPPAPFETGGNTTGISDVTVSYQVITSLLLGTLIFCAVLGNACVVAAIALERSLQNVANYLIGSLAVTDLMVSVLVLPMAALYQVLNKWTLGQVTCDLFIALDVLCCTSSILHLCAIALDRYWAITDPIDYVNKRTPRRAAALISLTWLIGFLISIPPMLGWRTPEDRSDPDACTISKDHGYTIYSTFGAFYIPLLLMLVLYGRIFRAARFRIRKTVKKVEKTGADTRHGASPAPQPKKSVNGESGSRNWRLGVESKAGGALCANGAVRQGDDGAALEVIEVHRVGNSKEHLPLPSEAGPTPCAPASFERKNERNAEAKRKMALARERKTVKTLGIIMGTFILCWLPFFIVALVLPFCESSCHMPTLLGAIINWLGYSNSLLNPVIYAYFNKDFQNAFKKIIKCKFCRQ
# Protocol Description: Displacement of [3H]8-OH-DPAT from human recombinant 5HT1A receptor expressed in HeLa cell membranes after 30 mins
Observation Type: pKi
pKi field: float, defined as -log10 of concentration (mol/L).

molecule="COc1cccc(OC)c1OCCNCC1COCC(c2ccccc2)(c2ccccc2)O1 (racemic)" observation_type=pKi observed=8.85
molecule=c1ccc(OCCNC[C@@H]2COCC(c3ccccc3)(c3ccccc3)O2)cc1 observation_type=pKi observed=8.83
molecule=COc1cccc(OC)c1OCCNC[C@@H]1COCC(c2ccccc2)(c2ccccc2)O1 observation_type=pKi observed=7.35
molecule=COc1cccc(OC)c1OCCNC[C@@H]1COc2ccccc2O1 observation_type=pKi observed=7.39
molecule=COc1cccc(OC)c1OCCNC[C@H]1COCC(c2ccccc2)(c2ccccc2)O1 observation_type=pKi observed=9.26

Param readout= pKi; system= 5-hydroxytryptamine receptor 1A (Homo sapiens, UniProt P08908); entry= c1ccc(OCCNC[C@H]2COCC(c3ccccc3)(c3ccccc3)O2)cc1 ; returns value.
9.40

Param readout= pKi; system= 5-hydroxytryptamine receptor 1A (Homo sapiens, UniProt P08908); entry= c1ccc(OCCNCC2COCC(c3ccccc3)(c3ccccc3)O2)cc1 (racemic) ; returns value.
9.23

Param readout= pKi; system= 5-hydroxytryptamine receptor 1A (Homo sapiens, UniProt P08908); entry= COc1ccccc1OCCNC[C@@H]1COCC(c2ccccc2)(c2ccccc2)O1 ; returns value.
9.22

Param readout= pKi; system= 5-hydroxytryptamine receptor 1A (Homo sapiens, UniProt P08908); entry= COc1cccc(OC)c1OCCNC[C@H]1COc2ccccc2O1 ; returns value.
8.61

Param readout= pKi; system= 5-hydroxytryptamine receptor 1A (Homo sapiens, UniProt P08908); entry= COc1ccccc1OCCNCC1COCC(c2ccccc2)(c2ccccc2)O1 (racemic) ; returns value.
9.18

Param readout= pKi; system= 5-hydroxytryptamine receptor 1A (Homo sapiens, UniProt P08908); entry= COc1ccccc1OCCNC[C@H]1COCC(c2ccccc2)(c2ccccc2)O1 ; returns value.
9.51

----------
Recorded log10(Ki) values for a group of compounds are listed next.
# Assay Target: Alpha-1D adrenergic receptor (Homo sapiens)
# Sequence (P25100 whole entry): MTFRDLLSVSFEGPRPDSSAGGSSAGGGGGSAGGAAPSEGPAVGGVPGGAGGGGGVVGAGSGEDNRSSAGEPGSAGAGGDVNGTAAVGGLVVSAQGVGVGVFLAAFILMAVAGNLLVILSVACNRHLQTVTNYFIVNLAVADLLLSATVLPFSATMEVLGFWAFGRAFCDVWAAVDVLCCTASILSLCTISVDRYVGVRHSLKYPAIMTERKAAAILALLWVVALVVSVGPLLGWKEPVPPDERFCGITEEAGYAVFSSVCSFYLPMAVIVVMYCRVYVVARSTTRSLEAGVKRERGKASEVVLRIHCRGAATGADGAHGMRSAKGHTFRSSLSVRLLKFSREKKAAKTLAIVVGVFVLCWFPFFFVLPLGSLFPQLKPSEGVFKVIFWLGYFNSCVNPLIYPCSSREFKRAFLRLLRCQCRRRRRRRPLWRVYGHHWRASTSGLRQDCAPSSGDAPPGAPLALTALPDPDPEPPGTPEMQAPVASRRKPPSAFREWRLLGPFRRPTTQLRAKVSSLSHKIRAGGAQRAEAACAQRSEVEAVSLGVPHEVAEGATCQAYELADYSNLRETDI
# Protocol Description: Displacement of [3H]prazosin from human recombinant alpha1D adrenergic receptor expressed in CHO cell membranes after 30 mins
The figures below represent log10 of Ki, where Ki is stated in nM.

Some compounds with recorded log10(Ki):
compound=c1ccc(OCCNC[C@@H]2COCC(c3ccccc3)(c3ccccc3)O2)cc1 observed=0.51
compound=COc1ccccc1OCCNC[C@@H]1COCC(c2ccccc2)(c2ccccc2)O1 observed=0.14

Give its log10(Ki) value. Item: COc1ccccc1OCCNC[C@H]1COCC(c2ccccc2)(c2ccccc2)O1
1.40

Give its log10(Ki) value. Item: c1ccc(OCCNCC2COCC(c3ccccc3)(c3ccccc3)O2)cc1 (racemic)
0.56

Give its log10(Ki) value. Item: COc1ccccc1OCCNCC1COCC(c2ccccc2)(c2ccccc2)O1 (racemic)
0.06

Give its log10(Ki) value. Item: COc1cccc(OC)c1OCCNC[C@H]1COCC(c2ccccc2)(c2ccccc2)O1
2.86

Give its log10(Ki) value. Item: c1ccc(OCCNC[C@H]2COCC(c3ccccc3)(c3ccccc3)O2)cc1
1.92

Give its log10(Ki) value. Item: COc1cccc(OC)c1OCCNCC1COCC(c2ccccc2)(c2ccccc2)O1 (racemic)
1.82

Give its log10(Ki) value. Item: COc1cccc(OC)c1OCCNC[C@@H]1COCC(c2ccccc2)(c2ccccc2)O1
1.75

----------
# Assay Target: Alpha-1A adrenergic receptor (Homo sapiens)
# Sequence (P35348 whole entry): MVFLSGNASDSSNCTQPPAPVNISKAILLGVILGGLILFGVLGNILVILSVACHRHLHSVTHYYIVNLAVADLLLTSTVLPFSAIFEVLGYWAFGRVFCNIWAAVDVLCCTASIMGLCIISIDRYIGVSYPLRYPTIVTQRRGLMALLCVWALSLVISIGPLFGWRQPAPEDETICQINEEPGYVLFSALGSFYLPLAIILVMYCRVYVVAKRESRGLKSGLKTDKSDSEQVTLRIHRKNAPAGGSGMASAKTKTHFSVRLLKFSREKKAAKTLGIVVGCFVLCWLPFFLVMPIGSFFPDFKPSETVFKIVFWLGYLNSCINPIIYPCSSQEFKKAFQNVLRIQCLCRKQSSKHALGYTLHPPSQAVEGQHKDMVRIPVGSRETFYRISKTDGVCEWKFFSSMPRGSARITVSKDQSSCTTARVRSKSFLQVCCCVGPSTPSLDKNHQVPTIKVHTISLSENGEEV
Recorded log10(Ki) values for a group of compounds are listed next.
The figures below represent log10 of Ki, where Ki is stated in µM.

compound=c1ccc(OCCNC[C@H]2COCC(c3ccccc3)(c3ccccc3)O2)cc1 observed=-0.36

Param readout= log10(Ki); system= Alpha-1A adrenergic receptor (Homo sapiens); entry= c1ccc(OCCNCC2COCC(c3ccccc3)(c3ccccc3)O2)cc1 (racemic) ; returns value.
-0.77

Param readout= log10(Ki); system= Alpha-1A adrenergic receptor (Homo sapiens); entry= COc1ccccc1OCCNC[C@@H]1COCC(c2ccccc2)(c2ccccc2)O1 ; returns value.
-1.78

Param readout= log10(Ki); system= Alpha-1A adrenergic receptor (Homo sapiens); entry= COc1cccc(OC)c1OCCNCC1COCC(c2ccccc2)(c2ccccc2)O1 (racemic) ; returns value.
-0.47

Param readout= log10(Ki); system= Alpha-1A adrenergic receptor (Homo sapiens); entry= COc1ccccc1OCCNC[C@H]1COCC(c2ccccc2)(c2ccccc2)O1 ; returns value.
-0.59

----------
# Assay Target: 5-hydroxytryptamine receptor 1A (Homo sapiens) (UniProt P08908)
# Condition Details: HeLa
# Description: Agonist activity at human 5HT1A receptor expressed in HeLa cell membranes by [35S]GTPgammaS binding assay
Quick rule: pD2 of at least 9 means condition met, below that means condition not met.

compound=COc1cccc(OC)c1OCCNC[C@@H]1COCC(c2ccccc2)(c2ccccc2)O1 label_value="condition not met"

Identify whether the reported pD2 of the following compound is 9 or greater: COc1ccccc1OCCNCC1COCC(c2ccccc2)(c2ccccc2)O1 (racemic)
condition met

Identify whether the reported pD2 of the following compound is 9 or greater: COc1cccc(OC)c1OCCNCC1COCC(c2ccccc2)(c2ccccc2)O1 (racemic)
condition not met

Identify whether the reported pD2 of the following compound is 9 or greater: COc1cccc(OC)c1OCCNC[C@H]1COCC(c2ccccc2)(c2ccccc2)O1
condition not met

Identify whether the reported pD2 of the following compound is 9 or greater: NCCc1c[nH]c2ccc(O)cc12
condition not met

----------
# Assay Target: 5-hydroxytryptamine receptor 1A (Homo sapiens)
# Condition Details: HeLa
# Description: Partial agonist activity at human 5HT1A receptor expressed in HeLa cell membranes after 20 mins by [35S]GTPgammaS binding assay
Observation Type: pD2
Number, no unit, nothing else.

sample_smiles=COc1ccccc1OCCNC[C@H]1COCC(c2ccccc2)(c2ccccc2)O1 observation_type=pD2 observed=9.19
sample_smiles=c1ccc(OCCNC[C@H]2COCC(c3ccccc3)(c3ccccc3)O2)cc1 observation_type=pD2 observed=9.19

Give its pD2 value. Item: c1ccc(OCCNC[C@@H]2COCC(c3ccccc3)(c3ccccc3)O2)cc1
7.82

Give its pD2 value. Item: COc1ccccc1OCCNC[C@@H]1COCC(c2ccccc2)(c2ccccc2)O1
7.7

----------
Dear all, this message contains pKi results, target or system UniProt:P35348.
pKi field: float, defined as -log10 of concentration (mol/L).

Some compounds with recorded pKi:
compound=COc1cccc(OC)c1OCCNC[C@@H]1COCC(c2ccccc2)(c2ccccc2)O1 observation_type=pKi observed=6.78
compound=c1ccc(OCCNC[C@@H]2COCC(c3ccccc3)(c3ccccc3)O2)cc1 observation_type=pKi observed=6.89

Please turn your attention to the following entry.
Param readout= pKi; system= UniProt:P35348; entry= COc1ccccc1OCCNCC1COCC(c2ccccc2)(c2ccccc2)O1 (racemic) ; returns value.
7.56
